target_entity: 5-HT2A (Homo sapiens (Human), UniProt P28223)
Sequence (P28223 whole entry): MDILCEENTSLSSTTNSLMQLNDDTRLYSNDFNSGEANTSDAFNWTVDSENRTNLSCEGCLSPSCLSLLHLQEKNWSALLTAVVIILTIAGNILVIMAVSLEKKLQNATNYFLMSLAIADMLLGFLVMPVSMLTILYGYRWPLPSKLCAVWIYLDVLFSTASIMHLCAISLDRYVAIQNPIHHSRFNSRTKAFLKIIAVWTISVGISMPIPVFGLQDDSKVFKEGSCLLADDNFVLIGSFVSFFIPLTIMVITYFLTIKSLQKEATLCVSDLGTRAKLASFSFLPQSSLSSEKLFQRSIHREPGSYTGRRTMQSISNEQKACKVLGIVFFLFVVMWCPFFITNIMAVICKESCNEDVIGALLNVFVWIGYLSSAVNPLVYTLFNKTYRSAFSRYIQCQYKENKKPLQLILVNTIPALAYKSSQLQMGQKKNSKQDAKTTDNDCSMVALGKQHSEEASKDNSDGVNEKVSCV
run_description: Radioligand binding assay, [^3H]5-HT competition, 5-HT2A
assay_conditions: [^3H]5-HT radioligand, membranes of HEK293 cells expressing recombinant 5-HT2A; Ki from IC50 by Cheng-Prusoff; read-out: 5-HT2A serotonin binding Ki value
Collected Ki values appear next to each entry.
metric: Ki (nM)

INSERT INTO results (compound, metric, assay_value) VALUES
  ('CCN(CCOC)CCOc1ccc(NC(=O)C2CC2)cc1-c1c(C)ncnc1C [Compound 355]', 'Ki', 177),
  ('Cc1ncnc(C)c1-c1cc(NC(=O)C2(F)CCC2)ccc1OC[C@H]1CCCCN1 [Compound 444]', 'Ki', 4.93),
  ('Cc1ncnc(C)c1-c1cc(NC(=O)c2ncoc2C)ccc1OC[C@H]1CCCCN1 [Compound 432]', 'Ki', 19.1),
  ('COc1ccc(C(=O)Nc2ccc(OCCN3CCC3)c(-c3c(C)ncnc3C)c2)cc1 [Compound 318]', 'Ki', 4.09),
  ('Cc1ncnc(C)c1-c1cc(NC(=O)CCc2ccccc2)ccc1OCCN1CCCC1 [Compound 255]', 'Ki', 1.72),
  ('Cc1ncnc(C)c1-c1cc(NC(=O)Cc2ccc(F)cc2)ccc1OCCN1CCCC1 [Compound 254]', 'Ki', 1.3),
  ('CCC[C@@H](F)C(=O)Nc1ccc(OC[C@H]2CCCCN2)c(-c2c(C)ncnc2C)c1 [Compound 441]', 'Ki', 5.67),
  ('Cc1nocc1C(=O)Nc1ccc(OC[C@H]2CCCCN2)c(-c2c(C)ncnc2C)c1 [Compound 430]', 'Ki', 21.6);

====

target_entity: 5-HT2A (Homo sapiens (Human))
run_description: Radioligand binding assay, [^3H]5-HT competition, 5-HT2A
assay_conditions: [^3H]5-HT radioligand, membranes of HEK293 cells expressing recombinant 5-HT2A; Ki from IC50 by Cheng-Prusoff; read-out: 5-HT2A serotonin binding Ki value
metric: Ki (nM)

INSERT INTO measurements (compound, target_entity, unit, assay_value) VALUES
  ('Cc1ncnc(C)c1-c1cc(NC(=O)[C@H]2C[C@H]2F)ccc1OC[C@H]1CCCCN1 [Compound 423]', '5-HT2A (Homo sapiens (Human))', 'nM', 16.2),
  ('Cc1ncnc(C)c1-c1cc(NC(=O)c2ccccc2F)ccc1OCCN1CCCC1 [Compound 298]', '5-HT2A (Homo sapiens (Human))', 'nM', 16.9),
  ('Cc1ncnc(C)c1-c1cc(NC(=O)c2ccc(C#N)cc2)ccc1OCCN1CCC1 [Compound 326]', '5-HT2A (Homo sapiens (Human))', 'nM', 13.7),
  ('Cc1ncsc1C(=O)Nc1ccc(OCCN2CCCC2)c(-c2c(C)ncnc2C)c1 [Compound 214]', '5-HT2A (Homo sapiens (Human))', 'nM', 3.25),
  ('COCCN(C)CCOc1ccc(NC(=O)c2c(F)cnn2C)cc1-c1c(C)ncnc1C [Compound 380]', '5-HT2A (Homo sapiens (Human))', 'nM', 9.47),
  ('Cc1ncnc(C)c1-c1cc(NC(=O)c2ccccc2)ccc1OCCN1CC(F)C1 [Compound 387]', '5-HT2A (Homo sapiens (Human))', 'nM', 13.3),
  ('CCCN(CCO)CCOc1ccc(NC(=O)C2CC2)cc1-c1c(C)ncnc1C [Compound 359]', '5-HT2A (Homo sapiens (Human))', 'nM', 102),
  ('Cc1ncnc(C)c1-c1cc(NC(=O)C2CC2)ccc1OCCN(C)CC1CC1 [Compound 368]', '5-HT2A (Homo sapiens (Human))', 'nM', 19.6);

====

Each item that follows carries a reported Ki.
target_entity: 5-HT2A (Homo sapiens (Human), UniProt P28223)
run_description: Radioligand binding assay, [^3H]5-HT competition, 5-HT2A
assay_conditions: [^3H]5-HT radioligand, membranes of HEK293 cells expressing recombinant 5-HT2A; Ki from IC50 by Cheng-Prusoff; read-out: 5-HT2A serotonin binding Ki value
metric: Ki

INSERT INTO results (smi, assay_value) VALUES
  ('Cc1ncnc(C)c1-c1cc(NC(=O)C2(F)CC2)ccc1OC1CNC1', '6.26 nM'),
  ('Cc1ncnc(C)c1-c1cc(NC(=O)Cc2ccn(C)c2)ccc1OCCN1CCCC1', '7.78 nM'),
  ('CCc1cc(C(=O)Nc2ccc(OCCN3CCCC3)c(-c3c(C)ncnc3C)c2)[nH]n1', '10.4 nM'),
  ('Cc1ncoc1C(=O)Nc1ccc(OCCN2CCCC2)c(-c2c(C)ncnc2C)c1', '7.23 nM'),
  ('Cc1ncnc(C)c1-c1cc(NC(=O)Cc2ccc(F)cn2)ccc1OCCN1CCCC1', '32.6 nM'),
  ('Cc1ncnc(C)c1-c1cc(NC(=O)c2ncccc2F)ccc1OCCN1CCC1', '334 nM');

====

target_entity: 5-HT2C (Homo sapiens (Human))
Sequence (P28335 33-458): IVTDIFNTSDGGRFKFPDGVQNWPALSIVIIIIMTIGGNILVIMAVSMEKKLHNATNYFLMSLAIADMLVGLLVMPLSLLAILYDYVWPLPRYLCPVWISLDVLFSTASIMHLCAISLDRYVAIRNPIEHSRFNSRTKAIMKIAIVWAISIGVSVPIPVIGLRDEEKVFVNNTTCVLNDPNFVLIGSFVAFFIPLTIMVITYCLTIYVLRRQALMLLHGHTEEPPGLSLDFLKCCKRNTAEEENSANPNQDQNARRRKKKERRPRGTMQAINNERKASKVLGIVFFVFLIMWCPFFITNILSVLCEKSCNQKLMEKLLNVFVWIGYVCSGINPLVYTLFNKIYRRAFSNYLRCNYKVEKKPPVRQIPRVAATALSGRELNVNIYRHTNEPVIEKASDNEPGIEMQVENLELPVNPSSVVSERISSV
run_description: HTRF IP-One antagonist assay, 5-HT2C;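 note: clonal HEK293 line with low 5-HT2C density (10–20 fmol/mg), HTRF detection of IP-One, 10-point dose curves from 10 µM in 5-fold steps, triplicate points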
assay_conditions: HEK293 cells stably expressing receptor, inositol phosphate accumulation, 80 nM 5-HT in Assay Buffer
metric: IC50 (µM)

INSERT INTO assay_data (smi, metric, unit, assay_value) VALUES
  ('Cc1ncoc1C(=O)Nc1ccc(OCCN2CCCC2)c(-c2c(C)ncnc2C)c1', 'IC50', 'µM', 100),
  ('Cc1ncsc1C(=O)Nc1ccc(OCCN2CCC2)c(-c2c(C)ncnc2C)c1', 'IC50', 'µM', 100),
  ('Cc1ncnc(C)c1-c1cc(NC(=O)c2ccnn2C)ccc1OCCN1CCC1', 'IC50', 'µM', 100),
  ('Cc1ncnc(C)c1-c1cc(NC(=O)CCc2cncs2)ccc1OCCN1CCCC1', 'IC50', 'µM', 100);

====

target_entity: 5-HT2A (Homo sapiens (Human), UniProt P28223)
run_description: Radioligand binding assay, [^3H]5-HT competition, 5-HT2A
assay_conditions: [^3H]5-HT radioligand, membranes of HEK293 cells expressing recombinant 5-HT2A; Ki from IC50 by Cheng-Prusoff; read-out: 5-HT2A serotonin binding Ki value
metric: Ki

INSERT INTO results (smi, target_entity, metric, assay_value) VALUES
  ('Cc1cnn(C)c1C(=O)Nc1ccc(OCCN2CCC2)c(-c2c(C)ncnc2C)c1', '5-HT2A (Homo sapiens (Human), UniProt P28223)', 'Ki', '0.0159 µM'),
  ('Cc1nc(C)c(C(=O)Nc2ccc(OCCN3CCCC3)c(-c3c(C)ncnc3C)c2)s1', '5-HT2A (Homo sapiens (Human), UniProt P28223)', 'Ki', '0.0157 µM'),
  ('Cc1ncnc(C)c1-c1cc(NC(=O)CCc2nccs2)ccc1OCCN1CCCC1', '5-HT2A (Homo sapiens (Human), UniProt P28223)', 'Ki', '0.00989 µM'),
  ('Cc1ncnc(C)c1-c1cc(NC(=O)C2CC2)ccc1OC1CNC1', '5-HT2A (Homo sapiens (Human), UniProt P28223)', 'Ki', '0.00593 µM'),
  ('Cc1ncnc(C)c1-c1cc(NC(=O)Cc2cncc(F)c2)ccc1OCCN1CCCC1', '5-HT2A (Homo sapiens (Human), UniProt P28223)', 'Ki', '0.0334 µM'),
  ('Cc1ncnc(C)c1-c1cc(NC(=O)[C@@H](F)C(C)C)ccc1OC[C@H]1CCCCN1', '5-HT2A (Homo sapiens (Human), UniProt P28223)', 'Ki', '0.0188 µM'),
  ('Cc1ncnc(C)c1-c1cc(NC(=O)[C@H](F)C(C)C)ccc1OC[C@H]1CCCCN1', '5-HT2A (Homo sapiens (Human), UniProt P28223)', 'Ki', '0.0171 µM'),
  ('Cc1ncnc(C)c1-c1cc(NC(=O)c2ccccc2)ccc1OCCN1C[C@H]2C[C@H]2C1', '5-HT2A (Homo sapiens (Human), UniProt P28223)', 'Ki', '0.00363 µM');

====

Below, each entry is listed alongside its reported Ki.
target_entity: 5-HT2A (Homo sapiens (Human), UniProt P28223)
run_description: Radioligand binding assay, [^3H]5-HT competition, 5-HT2A
assay_conditions: read-out: 5-HT2A serotonin binding Ki value
metric: Ki (nM)

INSERT INTO measurements (compound, metric, unit, assay_value) VALUES
  ('Cc1ncnc(C)c1-c1cc(NC(=O)C2CC2)ccc1OCCN1CCC(CC(=O)O)C1 (stereo not drawn)', 'Ki', 'nM', 485),
  ('Cc1nscc1C(=O)Nc1ccc(OCCN2CCCC2)c(-c2c(C)ncnc2C)c1', 'Ki', 'nM', 10.5),
  ('Cc1ncsc1CC(=O)Nc1ccc(OCCN2CCC2)c(-c2c(C)ncnc2C)c1', 'Ki', 'nM', 5.89);

====

target_entity: 5-HT2B (Homo sapiens (Human), UniProt P41595)
Sequence (P41595 whole entry): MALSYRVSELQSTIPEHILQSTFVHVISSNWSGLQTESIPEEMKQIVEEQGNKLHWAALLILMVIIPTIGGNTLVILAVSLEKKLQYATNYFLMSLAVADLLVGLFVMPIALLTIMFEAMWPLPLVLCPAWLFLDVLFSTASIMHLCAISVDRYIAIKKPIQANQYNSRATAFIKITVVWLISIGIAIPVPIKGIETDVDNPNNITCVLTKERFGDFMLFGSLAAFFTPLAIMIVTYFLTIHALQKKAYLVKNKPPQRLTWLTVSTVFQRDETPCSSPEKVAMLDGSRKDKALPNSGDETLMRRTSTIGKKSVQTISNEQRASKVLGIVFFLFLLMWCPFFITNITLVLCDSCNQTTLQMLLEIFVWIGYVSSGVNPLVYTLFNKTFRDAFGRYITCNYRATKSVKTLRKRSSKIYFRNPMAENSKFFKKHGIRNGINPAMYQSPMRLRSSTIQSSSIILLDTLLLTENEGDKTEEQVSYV
run_description: HTRF IP-One antagonist assay, 5-HT2B
assay_conditions: HEK293 cells stably expressing receptor, inositol phosphate accumulation, 80 nM 5-HT in Assay Buffer
metric: IC50 (µM)

INSERT INTO results (smi, target_entity, unit, assay_value) VALUES
  ('Cc1ncnc(C)c1-c1cc(NC(=O)c2ccccc2F)ccc1OCCN1CCC1', '5-HT2B (Homo sapiens (Human), UniProt P41595)', 'µM', 2.36),
  ('Cc1ncnc(C)c1-c1cc(NC(=O)Cc2ccno2)ccc1OCCN1CCCC1', '5-HT2B (Homo sapiens (Human), UniProt P41595)', 'µM', 100),
  ('Cc1ncnc(C)c1-c1cc(NC(=O)c2c(F)cnn2C)ccc1OCCN1CCC1', '5-HT2B (Homo sapiens (Human), UniProt P41595)', 'µM', 3.19),
  ('Cc1ncnc(C)c1-c1cc(NC(=O)c2ccccc2)ccc1OCCN1CCC1', '5-HT2B (Homo sapiens (Human), UniProt P41595)', 'µM', 100);
